The values you see were collected from patent US20240270826A1.

# Target or test system: Human SARS-CoV-2_Wuhan S (SmT1) (SARS-CoV-2 (Wuhan), UniProt P0DTC2 14-1208)
# Measurement description: SPR, VHH over immobilised S
Label 1 when Kd < 0.6 nM; otherwise 0.

Binder	Category label
NRCoV2-S2A4 VHH (VHH) VHH: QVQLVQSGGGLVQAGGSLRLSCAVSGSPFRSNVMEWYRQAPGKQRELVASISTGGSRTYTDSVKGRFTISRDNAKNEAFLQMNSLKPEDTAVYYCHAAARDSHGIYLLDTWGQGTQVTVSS	0
NRCoV2-MRed25 VHH (VHH) VHH: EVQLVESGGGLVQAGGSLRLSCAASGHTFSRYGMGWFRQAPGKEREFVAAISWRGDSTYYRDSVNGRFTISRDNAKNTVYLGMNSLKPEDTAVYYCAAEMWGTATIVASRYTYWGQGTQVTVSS	0
NRCoV2-SR01 VHH (VHH) VHH: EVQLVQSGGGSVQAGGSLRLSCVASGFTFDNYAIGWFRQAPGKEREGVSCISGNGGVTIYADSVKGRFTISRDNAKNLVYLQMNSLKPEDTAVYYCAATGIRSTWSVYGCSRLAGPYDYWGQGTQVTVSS	1
NRCoV2-17 VHH (VHH) VHH: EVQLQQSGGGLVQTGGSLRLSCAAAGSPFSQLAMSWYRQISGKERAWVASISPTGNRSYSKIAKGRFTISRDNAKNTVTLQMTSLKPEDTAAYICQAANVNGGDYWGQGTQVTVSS	1
NRCoV2-15 VHH (VHH) VHH: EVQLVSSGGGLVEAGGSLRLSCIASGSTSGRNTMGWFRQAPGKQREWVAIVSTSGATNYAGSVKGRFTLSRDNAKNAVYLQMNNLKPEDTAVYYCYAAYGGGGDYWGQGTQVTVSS	1
NRCoV2-07 VHH (VHH) VHH: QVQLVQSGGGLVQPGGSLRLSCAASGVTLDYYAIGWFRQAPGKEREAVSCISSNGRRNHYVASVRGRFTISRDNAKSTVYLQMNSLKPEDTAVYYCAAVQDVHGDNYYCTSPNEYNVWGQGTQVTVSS	0
NRCoV2-MRed03 VHH (VHH) VHH: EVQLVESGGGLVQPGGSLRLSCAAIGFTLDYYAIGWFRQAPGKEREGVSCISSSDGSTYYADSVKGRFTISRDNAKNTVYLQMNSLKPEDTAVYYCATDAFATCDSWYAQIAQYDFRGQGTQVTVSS	1
NRCoV2-03 VHH (VHH) VHH: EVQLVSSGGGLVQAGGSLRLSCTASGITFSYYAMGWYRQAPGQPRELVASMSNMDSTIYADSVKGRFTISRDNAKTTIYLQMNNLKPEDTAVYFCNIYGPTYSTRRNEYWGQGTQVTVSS	0
